Origin of measurements: patent US20160207906A1

Assignment: determine reported IC50 for the given molecules.
TESTED ON: Dephosphorylated BTK (Homo sapiens, UniProt Q06187)
Sequence (Q06187 whole entry): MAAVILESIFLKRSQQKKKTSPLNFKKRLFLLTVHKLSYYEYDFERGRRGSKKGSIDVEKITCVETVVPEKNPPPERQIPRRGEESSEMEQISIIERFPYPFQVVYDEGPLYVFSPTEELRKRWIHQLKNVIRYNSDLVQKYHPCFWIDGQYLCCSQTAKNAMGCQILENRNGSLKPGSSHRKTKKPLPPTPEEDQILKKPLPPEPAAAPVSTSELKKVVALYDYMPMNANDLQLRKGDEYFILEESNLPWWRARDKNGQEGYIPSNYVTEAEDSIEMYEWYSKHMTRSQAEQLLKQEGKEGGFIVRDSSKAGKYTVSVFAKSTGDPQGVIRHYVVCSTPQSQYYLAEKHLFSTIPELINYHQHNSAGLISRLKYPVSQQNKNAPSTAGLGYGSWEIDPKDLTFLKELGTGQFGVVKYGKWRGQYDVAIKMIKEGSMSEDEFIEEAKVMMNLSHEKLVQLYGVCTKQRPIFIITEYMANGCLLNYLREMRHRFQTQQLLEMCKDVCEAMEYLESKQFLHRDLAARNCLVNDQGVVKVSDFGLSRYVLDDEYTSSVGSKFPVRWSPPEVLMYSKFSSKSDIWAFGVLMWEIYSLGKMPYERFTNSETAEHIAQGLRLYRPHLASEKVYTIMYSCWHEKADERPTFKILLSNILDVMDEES
Give bare numbers, in nM.

These solved cases illustrate the format of a correct answer.
Form entry - test system: Dephosphorylated BTK (Homo sapiens, UniProt Q06187); read-out: IC50; molecule: Nc1cc(-c2cccc(-n3ccc4cc(C5CC5)cc(F)c4c3=O)c2CO)nc(Nc2cnn(CC3CC3)c2)n1 [Example 8] 0.3

Form entry - test system: Dephosphorylated BTK (Homo sapiens, UniProt Q06187); read-out: IC50; molecule: Nc1cc(-c2cccc(-n3ccc4cc(C5CC5)cc(F)c4c3=O)c2CO)nc(Nc2cnn(C3CC3)c2)n1 [Example 9] 0.3

Form entry - test system: Dephosphorylated BTK (Homo sapiens, UniProt Q06187); read-out: IC50; molecule: Cn1cc(Nc2nc(N)cc(-c3cccc(-n4ncc5cc(C6CC6)cc(F)c5c4=O)c3CO)n2)cn1 [Example 20] 0.6

Form entry - test system: Dephosphorylated BTK (Homo sapiens, UniProt Q06187); read-out: IC50; molecule: Nc1cc(-c2cccc(-n3ccc4cc(C5CC5)cc(F)c4c3=O)c2CO)nc(Nc2ccc(N3CCOCC3)cc2)n1 [Example 1] 2.1

Form entry - test system: Dephosphorylated BTK (Homo sapiens, UniProt Q06187); read-out: IC50; molecule: Cn1cc(Nc2nc(N)cc(-c3cccc(-n4ccc5cc(C6CC6)cc(F)c5c4=O)c3CO)n2)cn1 [Example 2] 6.4

Form entry - test system: Dephosphorylated BTK (Homo sapiens, UniProt Q06187); read-out: IC50; molecule: Nc1cc(-c2cccc(-n3ncc4cc(C5CC5)cc(F)c4c3=O)c2CO)nc(Nc2cnn(C3CC3)c2)n1 [Example 21] 0.4

Answer for every listed entry: what is its IC50? The entries follow.
1. Cn1cc(Nc2nc(N)cc(-c3cccc(-n4ccc5cc(C6CC6)cc(F)c5c4=O)c3CO)n2)cc1C#N [Example 5]
2. Cn1cc(Nc2nc(N)cc(-c3cccc(-n4ncc5cc(C6CC6)cc(F)c5c4=O)c3CO)n2)cc1C#N [Example 24]
3. N#Cc1cc(Nc2nc(N)cc(-c3cccc(-n4ccc5cc(C6CC6)cc(F)c5c4=O)c3CO)n2)cn1C1CC1 [Example 10]

1: 1.7; 2: 0.4; 3: 2.1
